This collection of values is drawn from patent US20230340147A1.

Target: T1, PSA(67-79)-G0F (human, also: Asn3 N-glycosylated with octasaccharide carrying alpha-1,6 core fucose (G0F))
T1 construct: Synthetic glycopeptide (3.9 kDa as SPR analyte), made on Sieber Amide resin; For the ELISAs a biotinylated form was used (glutamic acid derivative with a PEG3-biotin side chain at the N-terminus); also called PSA(67-79)-GOF; glycopeptide of Formula Ib
T1 peptide: IRN(G0F)KSVILLGRHS-NH2
Assay: SPR, Biacore 8k, 37 C, antibody captured by anti-rabbit Fc, peptide as analyte, Langmuir fit
Protocol: 30 μg/ml of a Fcγ-fragment binding, polyclonal goat anti-Rabbit IgG (GARb-Fcγ, Jackson Laboratories) in 10 mM sodium acetate buffer (pH 4.5) was pre-concentrated in all 16 flow cells, and up to 10000 RU GARb-Fcγ were immobilized according to the manufacturer's instructions using EDC/NHS chemistry. […] The antibody Capture Level (CL) was quantified in response units (RU) for each antibody. […]
Ends that are not written are not given here. * marks the point of attachment. G0F = octasaccharide N-glycan with alpha-1,6 core fucose (Formula Ib, linkages Formula Ic), CC(=O)N[C@@H]1[C@@H](O)[C@H](O[C@@H]2O[C@H](CO)[C@@H](O[C@@H]3O[C@H](CO[C@H]4O[C@H](CO)[C@@H](O)[C@H](O)[C@@H]4O[C@@H]4O[C@H](CO)[C@@H](O)[C@H](O)[C@H]4NC(C)=O)[C@@H](O)[C@H](O[C@H]4O[C@H](CO)[C@@H](O)[C@H](O)[C@@H]4O[C@@H]4O[C@H](CO)[C@@H](O)[C@H](O)[C@H]4NC(C)=O)[C@@H]3O)[C@H](O)[C@H]2NC(C)=O)[C@@H](CO[C@@H]2O[C@@H](C)[C@@H](O)[C@@H](O)[C@@H]2O)O[C@H]1*
What kon was measured for each of the following?
// units = M⁻¹ s⁻¹; emit number, no label

In plain terms, 3H6 (antibody, V domains shown, Rabbit monoclonal IgG (150 kDa); also called anti-1,6fucPSA antibody 3H6) VH: QSLEESGGDLVKPGASLTLTCTASGFSFSSGYDMCWVRQAPGKGLEWIACIYADGSGSTYYASWAKGRFTISKPSSTTVTLQMTRLTAADTATYFCAREGADGPDYGYAAFSLWGPGTLVTVSS VL: DIVMTQTPASVEAAVGGTVTIKCQASQTISSYFSWYQQKPGQPPKLLIYKASSLASGVPSRFKGSGSGTQFTLTISDLECADAATYYCQSFYGSVSSDVGGFAFGGGTEVVVK has a documented kon of 1.52e+06

The reported kon of the binder 13C5 (antibody, V domains shown, Rabbit monoclonal IgG (150 kDa); also called anti-1,6fucPSA antibody 13C5) VH: QSLEESGGDLVKPGASLTLTCTASGFSFSSGYDMCWVRQAPGKGLEWIGCIYADGSGTTYYATWAKGRFTISNPSATTVTLQMTRLTAADTATYFCAREGADNPNYGYAALRLWGPGTLVTVSS VL: DIVMTQTPASVSGAVGGTITIKCQASQSISNYFSWYQQKPGQPPKLLIYKTSTLASGVPSRFKGSGSGTEFTLTISDLECADAATYYCQSFWGSGSSDYGGFAFGGGTEVVVK was 981000
